Biological target: His-TEV-DYRK1A Kinase domain (aa127-485) (Homo sapiens, UniProt Q13627)
Construct: His-TEV-DYRK1A Kinase domain (aa127-485); His (N); TEV cleavage site (N)
Assay: Kinase ADP assay (ADP Hunter Plus)
Format: biochemical
Overview of reported IC50 across a group of compounds:

>  <SMILES_NOTATION>
Cc1nc(NCC2CCCCC2)c2c(-c3ccnc(N)c3)c[nH]c2n1

>  <READOUT_UNIT>
µM

>  <IC50>
0.044

$$$$
>  <SMILES_NOTATION>
C=Cc1nc(NCc2c(F)cccc2F)c2c(-c3ccnc(N)c3)c[nH]c2n1

>  <READOUT_UNIT>
µM

>  <IC50>
0.028

$$$$
>  <SMILES_NOTATION>
Cc1cc(-c2c[nH]c3nc(C)nc(NCc4c(F)cccc4F)c23)nc(N)n1

>  <READOUT_UNIT>
µM

>  <IC50>
0.055

$$$$
>  <SMILES_NOTATION>
C#Cc1nc(NCc2c(F)cccc2F)c2c(-c3ccnc(N)c3)c[nH]c2n1

>  <READOUT_UNIT>
µM

>  <IC50>
0.007

$$$$
>  <SMILES_NOTATION>
Cc1nc(NCc2ccsc2)c2c(-c3ccncc3)c[nH]c2n1

>  <READOUT_UNIT>
µM

>  <IC50>
0.249

$$$$
>  <SMILES_NOTATION>
Cc1nc(-c2cc3ccccc3[nH]2)c2c(-c3ccnc(N)c3)c[nH]c2n1

>  <READOUT_UNIT>
µM

>  <IC50>
0.028

$$$$
>  <SMILES_NOTATION>
Cc1nc(N2CCC(C(F)(F)F)CC2)c2c(-c3ccnc(N)c3)c[nH]c2n1

>  <READOUT_UNIT>
µM

>  <IC50>
0.121

$$$$
>  <SMILES_NOTATION>
Cc1cc(-c2ccc3c(c2)OCO3)c2c(-c3ccnc(N)c3)c[nH]c2n1

>  <READOUT_UNIT>
µM

>  <IC50>
0.008

$$$$
>  <SMILES_NOTATION>
Cc1nc(NCc2ccc(F)cc2F)c2c(-c3ccnc(N)c3)c[nH]c2n1

>  <READOUT_UNIT>
µM

>  <IC50>
0.014

$$$$

----------
Target: His-TEV-DYRK1A Kinase domain (aa127-485) (Homo sapiens, UniProt Q13627)
Construct: His-TEV-DYRK1A Kinase domain (aa127-485); His (N); TEV cleavage site (N)
Test: Kinase ADP assay (ADP Hunter Plus)
Assay type: biochemical
Overview of reported IC50 across a group of compounds:

>  <COMPOUND>
Cc1nc(NCc2cccc(Cl)c2C)c2c(-c3ccnc(N)c3)c[nH]c2n1 [Example 94]

>  <READOUT_UNIT>
µM

>  <IC50>
0.019

$$$$
>  <COMPOUND>
CCC(Nc1nc(C)nc2[nH]cc(-c3ccnc(N)c3)c12)c1ncccc1F (stereo not drawn) [Example 121]

>  <READOUT_UNIT>
µM

>  <IC50>
0.066

$$$$
>  <COMPOUND>
Cc1nc(COc2c(F)cccc2F)c2c(-c3ccnc(N)c3)c[nH]c2n1 [Example 166]

>  <READOUT_UNIT>
µM

>  <IC50>
0.025

$$$$
>  <COMPOUND>
Cc1nc(OCc2ccncc2)c2c(-c3ccnc(N)c3)c[nH]c2n1 [Example 23]

>  <READOUT_UNIT>
µM

>  <IC50>
0.015

$$$$
>  <COMPOUND>
Cc1nc(N2CCC(N(C)C)C2)c2c(-c3ccnc(N)c3)c[nH]c2n1 (stereo not drawn) [Example 31]

>  <READOUT_UNIT>
µM

>  <IC50>
1.07

$$$$
>  <COMPOUND>
Cc1nc(-c2cccc(OC(F)(F)F)c2)c2c(-c3ccnc(N)c3)c[nH]c2n1 [Example 181]

>  <READOUT_UNIT>
µM

>  <IC50>
0.019

$$$$
>  <COMPOUND>
Cc1nc(N2CC3(CCCCC3)C2)c2c(-c3ccnc(N)c3)c[nH]c2n1 [Example 109]

>  <READOUT_UNIT>
µM

>  <IC50>
0.524

$$$$
>  <COMPOUND>
Cc1nc([C@@H]2CCc3ccccc3C2)c2c(-c3ccnc(N)c3)c[nH]c2n1 [Example 190]

>  <READOUT_UNIT>
µM

>  <IC50>
0.419

$$$$
>  <COMPOUND>
Cc1nc(OCc2cc(C)on2)c2c(-c3ccncc3)c[nH]c2n1 [Example 16]

>  <READOUT_UNIT>
µM

>  <IC50>
0.011

$$$$
>  <COMPOUND>
Cc1nc(N2C[C@@H](C)O[C@@H](C)C2)c2c(-c3cc(N)nc(N)c3)c[nH]c2n1 [Example 126]

>  <READOUT_UNIT>
µM

>  <IC50>
0.418

$$$$
>  <COMPOUND>
Cc1nc(N2CCC3(CCC(C)CC3)C2)c2c(-c3ccnc(N)c3)c[nH]c2n1 (stereo not drawn) [Example 102]

>  <READOUT_UNIT>
µM

>  <IC50>
0.293

$$$$
>  <COMPOUND>
Cc1nc(-c2ccc(CN3CCCC3)cc2)c2c(-c3ccnc(N)c3)c[nH]c2n1 [Example 165]

>  <READOUT_UNIT>
µM

>  <IC50>
0.301

$$$$
>  <COMPOUND>
Cc1nc(N[C@H](C)c2ccccc2F)c2c(-c3ccnc(N)c3)c[nH]c2n1 [Example 86]

>  <READOUT_UNIT>
µM

>  <IC50>
0.121

$$$$
>  <COMPOUND>
Cc1nc(N2CCC3CCCCC3C2)c2c(-c3ccnc(N)c3)c[nH]c2n1 (stereo not drawn) [Example 104]

>  <READOUT_UNIT>
µM

>  <IC50>
0.015

$$$$
>  <COMPOUND>
Cc1nc(OCCN2CCCC2)c2c(-c3ccncc3)c[nH]c2n1 [Example 12]

>  <READOUT_UNIT>
µM

>  <IC50>
2.04

$$$$
>  <COMPOUND>
Cc1nc(-c2cccc(OCCCN3CCOCC3)c2)c2c(-c3ccnc(N)c3)c[nH]c2n1 [Example 174]

>  <READOUT_UNIT>
µM

>  <IC50>
0.07

$$$$
>  <COMPOUND>
Cc1nc(NCc2nccs2)c2c(-c3ccnc(N)c3)c[nH]c2n1 [Example 39]

>  <READOUT_UNIT>
µM

>  <IC50>
0.084

$$$$
>  <COMPOUND>
Cc1nc(NCc2c(F)cccc2F)c2c(-c3cc(N)nc(N)c3)c[nH]c2n1 [Example 115]

>  <READOUT_UNIT>
µM

>  <IC50>
0.005

$$$$
>  <COMPOUND>
Cc1nc(-c2cc(F)c3c(c2)OCO3)c2c(-c3ccnc(N)c3)c[nH]c2n1 [Example 191]

>  <READOUT_UNIT>
µM

>  <IC50>
0.006

$$$$
>  <COMPOUND>
Cc1nc(Nc2ccccc2)c2c(-c3ccnc(N)c3)c[nH]c2n1 [Example 129]

>  <READOUT_UNIT>
µM

>  <IC50>
0.072

$$$$
>  <COMPOUND>
Cc1nc(N2CCn3ccnc3C2)c2c(-c3ccnc(N)c3)c[nH]c2n1 [Example 135]

>  <READOUT_UNIT>
µM

>  <IC50>
0.091

$$$$
>  <COMPOUND>
Cc1nc(NCc2ccccc2Cl)c2c(-c3ccnc(N)c3)c[nH]c2n1 [Example 57]

>  <READOUT_UNIT>
µM

>  <IC50>
0.015

$$$$
>  <COMPOUND>
Cc1nc(-c2cccc(C(F)(F)F)c2)c2c(-c3ccnc(N)c3)c[nH]c2n1 [Example 168]

>  <READOUT_UNIT>
µM

>  <IC50>
0.01

$$$$
>  <COMPOUND>
Cc1nc(N2CCC2c2ccccc2)c2c(-c3ccnc(N)c3)c[nH]c2n1 (stereo not drawn) [Example 103]

>  <READOUT_UNIT>
µM

>  <IC50>
0.694

$$$$
>  <COMPOUND>
Cc1cc(-c2c[nH]c3nc(C)nc(OC[C@@H]4CCCNC4)c23)ccn1 [Example 6]

>  <READOUT_UNIT>
µM

>  <IC50>
0.07

$$$$
>  <COMPOUND>
COC1CCCN(c2nc(C)nc3[nH]cc(-c4cc(N)nc(N)c4)c23)C1 (stereo not drawn) [Example 144]

>  <READOUT_UNIT>
µM

>  <IC50>
0.545

$$$$
>  <COMPOUND>
Cc1nc(NCc2cc(F)cc(F)c2F)c2c(-c3ccnc(N)c3)c[nH]c2n1 [Example 73]

>  <READOUT_UNIT>
µM

>  <IC50>
0.038

$$$$

Hey, just so you know, these numbers are from patent US20180273538A1.
